Give measured fold change for each item. Keep answers brief.
assay: sensitizers of A549 cells to miR-34 induction, primary screen, imaging, A549 dox-inducible miR-34, nuclei and caspase counts (AID 1347080); details: A549 miR-34 inducible, Hoechst nuclei count, 48 h; measured here: relative caspase fold change +Dox/-Dox

Some entries whose results are on file:
[[record]]
molecule = "CCCC(=O)N[C@H]1CCOC1=O"
measured = 0.504

[[record]]
molecule = "CNC1CC(c2ccc(Cl)c(Cl)c2)c2ccccc21 (centres undefined)"
measured = 1.45

[[record]]
molecule = "C[C@]12CCC3c4ccc(OC(=O)N(CCCl)CCCl)cc4CCC3C1CC[C@@H]2O (some centres undefined)"
measured = 0.867

[[record]]
molecule = "c1ccc2cc(CC3=NCCN3)ccc2c1"
measured = 1.69

[[record]]
molecule = "CN1CC[C@@]23CCCCC2C1Cc1ccc(O)cc13 (some centres undefined)"
measured = 1.9


Give fold change for each listed item.
1. CC(C)(O)C(Cl)(Cl)Cl
2. CN(C)CCN(C)CCc1ccc(Cl)c(Cl)c1
3. COc1ccc(S(=O)(=O)N(CCO)c2ccccc2CN(C)C/C=C/c2ccc(Cl)cc2)cc1
4. CCCC[C@@H](C)C(OC(=O)C[C@@H](CC(=O)O)C(=O)O)C(C[C@@H](C)C[C@H](O)CCCC[C@@H](O)C[C@H](O)[C@H](C)N)OC(=O)C[C@@H](CC(=O)O)C(=O)O (some centres undefined)

Found:
0.817
0.848
1.21
0.809

----------
For each of the compounds below, state its nuclear beta-catenin stimulation.
test: stimulators of nuclear beta-catenin in C2C12, primary screen, imaging, WNT3A-conditioned medium, mouse C2C12, NPC library (AID 1117326); conditions: at 10 µM, stronger effect = higher value; also: reference of the scale not given here
Give bare numbers, in %.

Examples with answers:
[[record]]
compound = "COC(=O)C1=CCCN(C)C1"
measurement_units = "%"
measured = 4.2

[[record]]
compound = "C[C@@H]1C[C@@H]([C@H](O)CC2CC(=O)NC(=O)C2)C(=O)[C@@H](C)C1"
measurement_units = "%"
measured = 28.9

[[record]]
compound = "C[C@H]1O[C@@H](O[C@H]2[C@@H](O)C[C@H](O[C@H]3[C@@H](O)C[C@H](O[C@H]4CC[C@@]5(C)[C@H](CC[C@@H]6[C@@H]5CC[C@]5(C)[C@@H](C7=CC(=O)OC7)CC[C@]65O)C4)O[C@@H]3C)O[C@@H]2C)C[C@H](O)[C@@H]1O"
measurement_units = "%"
measured = 1.3

[[record]]
compound = "CCCCNCC(O)c1ccc(O)cc1 (configuration not stated)"
measurement_units = "%"
measured = -0.1

[[record]]
compound = "c1ccc(N2CCNCC2)cc1"
measurement_units = "%"
measured = 0.1

[[record]]
compound = "Clc1ccc(CSC(Cn2ccnc2)c2ccc(Cl)cc2Cl)cc1 (configuration not stated)"
measurement_units = "%"
measured = 4.8

[[record]]
compound = "CNC(C)Cc1ccccc1OC (configuration not stated)"
measurement_units = "%"
measured = -0.4

[[record]]
compound = "C[C@H]1CNCCc2ccc(Cl)cc21"
measurement_units = "%"
measured = 2.8


Please give nuclear beta-catenin stimulation, item by item, for the list that follows.
1. C=C(C)[C@H]1CN[C@H](C(=O)O)[C@H]1CC(=O)O
2. Clc1cccc(N2CCNCC2)c1

Found:
1: 0; 2: 1

Return reported nuclear beta-catenin stimulation values for all items listed beneath this line.
1. Oc1cccc2cccnc12
2. C[N+]1(CCF)[C@@H]2CC[C@H]1CC(OC(=O)C(O)(c1ccccc1)c1ccccc1)C2 (some centres not stated)
3. C[C@]12CC[C@H]3[C@@H](CCC4=CC(=O)CC[C@@]43C)[C@@H]1CC[C@@H]2C(=O)O
4. CC(Cc1ccccc1)NC=O (configuration not stated)
5. Cc1ccc(S(=O)(=O)N[C@@H](CCCCN)C(=O)CCl)cc1

Found:
6.4
-2.1
0.7
-2.3
2.3

For every record below, what is its nuclear beta-catenin stimulation?
1. NP(N)(=O)NC(=O)c1ccc(F)cc1
2. O=C(CCCN1CCC(n2c(=O)[nH]c3ccccc32)CC1)c1ccc(F)cc1

Found:
1. 0.1
2. 4.7

----------
assay: inhibition of 3D7 malaria parasite growth – strain 3D7 (AID 2306);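 also: 0% = DMSO wells and 100% = chloroquine plus artemisinin control wells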; conditions: P. falciparum 3D7 erythrocytic growth, LDH absorbance, 72 h; at 2 µM; stronger effect = higher value
Readout Kind: growth inhibition (%)
Answers are plain numbers, in %.

[[record]]
compound = "Cc1c2ccncc2c(C)c2c1[nH]c1ccccc12"
measured = 95


Each of the following entries comes with a recorded value; kindly state growth inhibition for each.
1. O=C(/C=C/c1ccc(Cl)c(Cl)c1)N1CCC(CN2[C@@H]3CC[C@H]2CC(c2c[nH]c4ccccc24)C3)CC1 (stereo partly specified)
2. CCCCOC(C(=O)OCC1CCCN1C)(c1ccccc1)c1ccccc1 (stereo unspecified)
3. COc1ccc2nc(-c3ccc(F)cc3)cc([C@@H](O)[C@@H]3C[C@@H]4CCN3CC4C=NO)c2c1 (stereo partly specified)
4. CC(=O)C1(c2ccccc2)CCN(CCC2(c3ccc(Cl)c(Cl)c3)CN(C(=O)Nc3cc(F)cc(F)c3)CCO2)CC1 (stereo unspecified)
5. CC[C@H]1CN2CC[C@H]1C[C@@H]2[C@@H](O)c1ccnc2ccccc12
6. CC(=O)Nc1ccc(CN2CCC(N(C)c3cc(NC(=O)c4cccc(F)c4)ccn3)CC2)cc1
7. CC(=O)N(Cc1ccccc1-c1ccc(CNCCc2ccccc2)cc1)C1CCN(Cc2ccccc2)CC1
8. Cc1cc2ccc(CNCCc3ccccc3Br)cc2nc1N

Found:
[100, 100, 100, 86, 98, 85, 101, 101]

Report growth inhibition for every entry below.
1. Cc1c(C)c2c(c(C)c1O)CC[C@](C)(C(=O)N1CCC(CN3CCC(c4c[nH]c5ccccc45)CC3)CC1)O2
2. Cc1[nH]c2ccc(O)cc2c1C1CCN(CC2CCC(NC(=O)/C=C/c3ccc(Cl)c(Cl)c3)CC2)CC1 (stereo unspecified)
3. CN1CC=C(c2c[nH]c3ccc(-c4ccccc4)cc23)CC1
4. CS(=O)(=O)Nc1ccc2[nH]cc(C3CCN(CC4CCN(C(=O)/C=C/c5ccc(Cl)c(Cl)c5)CC4)CC3)c2c1
5. CCCc1c(C(=O)NC2CCC(CN3CCC(c4c[nH]c5ccccc45)CC3)CC2)cnn1-c1ccc(Cl)cc1 (stereo unspecified)
6. CC[C@H]1CN2CC[C@H]1C[C@@H]2[C@H](O)c1ccnc2ccc(O)cc12

Found:
101
102
93
101
90
94

Lookup: Item O=C(NC1CCC(CN2CCC(c3c[nH]c4ccccc34)CC2)CC1)c1cc(-c2cccc(Cl)c2)n(-c2ccc(Cl)cc2Cl)n1 (stereo unspecified) : provide growth inhibition
Found: 81

----------
assay: growth inhibition of DIPG glioma cells, dose response, cell-based, SU-DIPG-IV, MIPE4.0, CellTiter-Glo, qHTS (AID 1347063); conditions: SU-DIPG-IV viability, CellTiter-Glo ATP luminescence;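 also: compound exposure lasted 48 hours before the viability readout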
Results filed as inconclusive are left out. The source made the active and inactive calls. The limit is not given here; nearly all actives have AC50 up to about 30 µM.
Respond using exactly one of the listed classes: active, inactive

Study these solved cases before continuing.
[[record]]
molecule = "Cc1[nH]nc2ccc(-c3cncc(OC[C@@H](N)Cc4c[nH]c5ccccc45)c3)cc12"
label_value = "active"

[[record]]
molecule = "CC1(C)CC(O)CC(C)(C)N1O"
label_value = "inactive"

[[record]]
molecule = "CC1=C2C[C@H]3[C@@H](CC=C4C[C@@H](O)CC[C@@]43C)[C@@H]2CC[C@]12O[C@@H]1C[C@H](C)CN[C@H]1[C@H]2C"
label_value = "inactive"


Lookup: What did the test return for "C[C@@]12OC(=O)[C@]1([C@@H](O)[C@@H]1C=CCCC1)NC(=O)[C@@H]2CCCl" ?
Found: active

Lookup: Hello, I am checking results. What call was entered for "COc1ccc(C(=O)c2c(C)n(CCN3CCOCC3)c3ccccc23)cc1" ?
Found: inactive

Lookup: What did the test return for "CC(C)N(CCNC(=O)CN1CCCC1=O)C(C)C" ?
Found: inactive

Lookup: For CN1C(=O)CCS(=O)(=O)C1c1ccc(Cl)cc1 (stereo not drawn) , which call appears in the assay record?
Found: inactive

Lookup: What did the test return for "O=S(=O)(F)Cc1ccccc1" ?
Found: inactive

Lookup: Tell me the assay call for "C[N+](C)(C)CC(=O)O" please.
Found: inactive

Lookup: // return assay outcome for "C[C@]12COC(=O)C[C@@H]1CC[C@@H]1[C@@H]2CC[C@@]2(C)[C@H]1CC[C@]2(C)O"
Found: inactive

----------
test: sensitizers of A549 cells to miR-34 induction, primary screen, imaging, A549 dox-inducible miR-34, nuclei and caspase counts (AID 1347080); details: A549 miR-34 inducible, Hoechst nuclei count, 48 h; stronger effect = lower value
Readout Kind: fold change
Answers are plain numbers.

Below are worked cases with known answers.
[[record]]
compound = "CCc1cc2c(s1)-n1c(C)nnc1CN=C2c1ccccc1Cl"
readout_kind = "fold change"
measured = 0.948

[[record]]
compound = "O=C(O)C(Cl)Cl"
readout_kind = "fold change"
measured = 1.04

[[record]]
compound = "CC(=O)OCC1=C(C(=O)O)N2C(=O)[C@@H](N)[C@H]2SC1"
readout_kind = "fold change"
measured = 0.918

[[record]]
compound = "C#C[C@]1(O)CC[C@H]2[C@@H]3CCC4=CC(=O)CCC4=C3C=C[C@@]21CC"
readout_kind = "fold change"
measured = 0.886


Record fold change per entry; entries follow.
1. CCCn1c(=O)c2[nH]c(C3CCCC3)nc2n(CCCOC(=O)c2ccc(S(=O)(=O)F)cc2)c1=O
2. O=C(O)CC[N+](=O)[O-]
3. O=C(NC1CN2CCC1CC2)c1cc2ccoc2cn1 (configuration not stated)

Found:
0.972
1.06
0.991
